Below is a list of entries, each paired with its recorded EC50 value.
# TARGET DESC: T1, human GPC3 on cells (human, UniProt P51654 25-554)
# T1 construct: whole, on cells; over-expressed on CHOK1 cells or endogenous on HEPG2, Hep3B and Huh-7 hepatocellular carcinoma cells; the cell line is named under assay; also called GPC3-CHOK1 cells; human GPC3 over-expressed CHOK1 cells
# ASSAY INFO: FACS, Huh-7 cells
Lab book: enter the figure in µg/mL, no units written.

Consider the worked cases shown below.
Hu 52H5D3B8-6 (antibody, V domains shown, humanized 52H5D3B8; also called 52H5D3B8 VH2 + VL1) VH: EVQLVQSGAEVKKPGASVKVSCKASGYTFTDYEMHWVRQAPGQGLEWMGAIHPGSGGTAYNQKFKGRVTMTADTSISTAYMELSRLRSDDTAVYYCTRFYSYAYWGQGTLVTVSS VL: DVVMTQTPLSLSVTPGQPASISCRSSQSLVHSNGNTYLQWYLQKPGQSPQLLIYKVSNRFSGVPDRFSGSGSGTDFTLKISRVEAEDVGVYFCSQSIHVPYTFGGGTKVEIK
0.0295
52H5D3B8 chimeric mAb (antibody, V domains shown, also called 52H5D3B8-VH+VL; chimeric 52H5D3B8 mAb) VH: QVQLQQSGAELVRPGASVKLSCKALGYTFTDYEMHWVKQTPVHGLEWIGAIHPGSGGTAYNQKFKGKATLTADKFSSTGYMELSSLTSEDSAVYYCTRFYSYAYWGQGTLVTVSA VL: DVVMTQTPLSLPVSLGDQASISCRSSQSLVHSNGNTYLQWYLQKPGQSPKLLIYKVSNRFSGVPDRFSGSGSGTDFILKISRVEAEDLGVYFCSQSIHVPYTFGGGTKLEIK
0.0469
Hu 52H5D3B8-2 (antibody, V domains shown, humanized 52H5D3B8; also called 52H5D3B8 VH0 + VL1) VH: EVQLVQSGAEVKKPGASVKVSCKASGYTFTDYEMHWVRQAPGQGLEWMGAIHPGSGGTAYNQKFKGRVTMTRDTSISTAYMELSRLRSDDTAVYYCARFYSYAYWGQGTLVTVSS VL: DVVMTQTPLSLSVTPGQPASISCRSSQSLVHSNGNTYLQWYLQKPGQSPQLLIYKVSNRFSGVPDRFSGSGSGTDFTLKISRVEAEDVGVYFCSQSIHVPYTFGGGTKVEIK
0.0195

Sample Hu 52H5D3B8-3 (antibody, V domains shown, humanized 52H5D3B8; also called 52H5D3B8 VH1 + VL0) VH: EVQLVQSGAEVKKPGASVKVSCKASGYTFTDYEMHWVRQAPGQGLEWMGAIHPGSGGTAYNQKFKGRVTMTRDTSISTAYMELSRLRSDDTAVYYCTRFYSYAYWGQGTLVTVSS VL: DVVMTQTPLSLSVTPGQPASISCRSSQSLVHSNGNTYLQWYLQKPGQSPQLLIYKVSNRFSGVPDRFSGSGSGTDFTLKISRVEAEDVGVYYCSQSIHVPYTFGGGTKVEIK ; EC50 observed: 0.0213

EC50 reported for this binder Hu 52H5D3B8-7 (antibody, V domains shown, humanized 52H5D3B8; also called 52H5D3B8 VH3 + VL0) VH: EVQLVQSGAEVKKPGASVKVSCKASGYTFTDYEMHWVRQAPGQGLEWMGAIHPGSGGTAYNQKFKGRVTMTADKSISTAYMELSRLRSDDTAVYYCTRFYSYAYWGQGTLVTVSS VL: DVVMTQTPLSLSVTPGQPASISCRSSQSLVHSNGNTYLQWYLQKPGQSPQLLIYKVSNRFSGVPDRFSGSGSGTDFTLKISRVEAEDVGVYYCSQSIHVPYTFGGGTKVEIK : 0.0242
